assay-comment: Plasma concentration in mice over time after oral gavage (LC-MS/MS)
Format: in vivo
measurement-setup: mouse, plasma, po, 50 mg/kg, mice plasma; 50 mg/kg oral gavage in Labrasol; time 1.0000 hr; read-out: [Aza-Englerin] (ng/mL), single animal
result-type: concentration at 1 h

# compound, value
data = [
    ("CC1CCC2C1C(OC(=O)/C=C/c1ccccc1)C1(C(C)C)CC(NC(=O)CO)C2(C)O1 (stereo not shown)", "87.2 ng/mL"),
]

====

assay-comment: Plasma concentration in mice over time after oral gavage (LC-MS/MS)
Assay type: in vivo
measurement-setup: mouse; mice plasma; 50 mg/kg oral gavage in Labrasol; SE=97.3 hr*ng/mL
result-type: AUC(0-t)

# compound, result-type, value
rows = [
    ("CC1CCC2C1C(OC(=O)/C=C/c1ccccc1)C1(C(C)C)CC(NC(=O)CO)C2(C)O1 (stereo not shown)", "AUC(0-t)", "524 ng·h/mL"),
]

====

assay-comment: Plasma concentration in mice over time after oral gavage (LC-MS/MS)
Type: in vivo
measurement-setup: mouse, plasma, po, 50 mg/kg, mice plasma; 50 mg/kg oral gavage in Labrasol; time 8.0000 hr; mean of two mice; read-out: [Aza-Englerin] Mean

# compound, units-symbol, concentration at 8 h
data = [
    ("CC1CCC2C1C(OC(=O)/C=C/c1ccccc1)C1(C(C)C)CC(NC(=O)CO)C2(C)O1 (stereo not shown)", "ng/mL", 67.8),
]

====

assay-comment: Plasma concentration in mice over time after oral gavage (LC-MS/MS)
Type: in vivo
measurement-setup: mouse, plasma, po, 50 mg/kg, mice plasma; 50 mg/kg oral gavage in Labrasol; time 4.0000 hr; mean of two mice; read-out: [Aza-Englerin] Mean

# compound, concentration at 4 h
data = [
    ("CC1CCC2C1C(OC(=O)/C=C/c1ccccc1)C1(C(C)C)CC(NC(=O)CO)C2(C)O1 (stereo not shown)", "59 ng/mL"),
]

====

assay-comment: Plasma concentration in mice over time after oral gavage (LC-MS/MS)
Format: in vivo
measurement-setup: mouse, plasma, po, 50 mg/kg, mice plasma; 50 mg/kg oral gavage in Labrasol; time 1.0000 hr; mean of two mice; read-out: [Aza-Englerin] Mean

# molecule, concentration at 1 h (ng/mL)
records = [
    ("CC1CCC2C1C(OC(=O)/C=C/c1ccccc1)C1(C(C)C)CC(NC(=O)CO)C2(C)O1 (stereo not shown) [Compound 9]", 73.2),
]

====

Tested on: HS 578T (breast cancer)
assay-comment: NCI 60-cell line protocol, Breast Cancer HS 578T
Assay type: cell-based, human
measurement-setup: one-dose protocol, single final concentration of 10 micromolar; two days; SRB endpoint
// values below are reported HS 578T one dose (%)
result-type: HS 578T one dose (%)

# molecule, result-type, units-symbol, value
rows = [
    ("CC1CCC2C1C(OC(=O)/C=C/c1ccccc1)C1(C(C)C)CC(NC(=O)CF)C2(C)O1 (centres unmarked)", "HS 578T one dose (%)", "%", 92.63),
    ("CC(C)[C@@]12C[C@@H](NC(=O)CO)[C@@](C)(O1)[C@@H]1CC[C@@H](C)[C@H]1[C@@H]2OC(=O)c1ccc2ccccc2c1", "HS 578T one dose (%)", "%", "−18.26"),
    ("CC1CCC2C1C(OC(=O)/C=C/c1ccccc1)C1(C(C)C)CC(NC(=O)CO)C2(C)O1 (centres unmarked)", "HS 578T one dose (%)", "%", 9.45),
    ("C/C(=C\\C(=O)OC1C2C(C)CCC2C2(C)OC1(C(C)C)CC2NC(=O)CO)c1ccccc1 (centres unmarked)", "HS 578T one dose (%)", "%", "−8.92"),
    ("CC(C)[C@@]12C[C@@H](NC(=O)CO)[C@@](C)(O1)[C@@H]1CC[C@@H](C)[C@H]1[C@@H]2OC(=O)/C=C/C1CCCCC1", "HS 578T one dose (%)", "%", 73.09),
]

====

assay-comment: Plasma concentration in mice over time after oral gavage (LC-MS/MS)
Type: in vivo
measurement-setup: mouse, plasma, po, 50 mg/kg, mice plasma; 50 mg/kg oral gavage in Labrasol; time 0.0833 hr; mean of two mice; read-out: [Aza-Englerin] Mean
Description: Ten mice were administered 50 mg/kg of compound 9 in Labrasol vehicle via oral gavage. Two mice at a time were sacrificed at the following time points: 5 min, 15 min, 1 h, 4 h, and 8 h. Plasma concentrations of compound 9 were measured by LC-MS/MS, and the results set forth in Table 4 and depicted graphically in FIG. 7. It was subsequently discovered that an error was made in weighing out compound 9 for formulation of a 5 mg/mL solution in Labrasol. […]

# molecule, concentration at 5 min / ng/mL
rows = [
    ("CC1CCC2C1C(OC(=O)/C=C/c1ccccc1)C1(C(C)C)CC(NC(=O)CO)C2(C)O1 (stereo not shown)", 10),
]

====

Tested on: ACHN (renal cancer)
result-type: GI50

# molecule, value
measured = [
    ("CC(C)[C@@]12C[C@@H](NC(=O)CO)[C@@](C)(O1)[C@@H]1CC[C@@H](C)[C@H]1[C@@H]2OC(=O)/C=C/C1CCCCC1", "17 µM"),
    ("CC(C)[C@@]12C[C@@H](NC(=O)CO)[C@@](C)(O1)[C@@H]1CC[C@@H](C)[C@H]1[C@@H]2OC(=O)c1ccc2ccccc2c1", "5.4 µM"),
    ("CC1CCC2C1C(OC(=O)/C=C/c1ccccc1)C1(C(C)C)CC(NC(=O)CO)C2(C)O1 (stereo not shown)", "4 µM"),
    ("C/C(=C\\C(=O)OC1C2C(C)CCC2C2(C)OC1(C(C)C)CC2NC(=O)CO)c1ccccc1 (stereo not shown)", "3.3 µM"),
]

====

assay-comment: Plasma concentration in mice 30 minutes after oral gavage, by dose (LC-MS)
Type: in vivo
measurement-setup: mouse, plasma, 100 mg/kg oral gavage in Labrasol, 30 minutes after dosing
result-type: concentration at 30 min

# compound, result-type, value
records = [
    ("CC1CCC2C1C(OC(=O)/C=C/c1ccccc1)C1(C(C)C)CC(NC(=O)CO)C2(C)O1 (stereo not shown)", "concentration at 30 min", "~700 ng/mL"),
]

====

Values of GI50 reported for A498 (renal cancer) appear below.

# molecule, units-symbol, GI50
rows = [
    ("CC1CCC2C1C(OC(=O)/C=C/c1ccccc1)C1(C(C)C)CC(NC(=O)CO)C2(C)O1 (stereo not shown) [Compound 9]", "nM", 160),
    ("C/C(=C\\C(=O)OC1C2C(C)CCC2C2(C)OC1(C(C)C)CC2NC(=O)CO)c1ccccc1 (stereo not shown) [Compound 10]", "nM", 1100),
    ("CC(C)[C@@]12C[C@@H](NC(=O)CO)[C@@](C)(O1)[C@@H]1CC[C@@H](C)[C@H]1[C@@H]2OC(=O)c1ccc2ccccc2c1 [Compound 12]", "nM", 1600),
    ("CC(C)[C@@]12C[C@@H](NC(=O)CO)[C@@](C)(O1)[C@@H]1CC[C@@H](C)[C@H]1[C@@H]2OC(=O)/C=C/C1CCCCC1 [Compound 11]", "nM", 5600),
]

====

assay-comment: Plasma concentration in mice over time after oral gavage (LC-MS/MS)
Type: in vivo
measurement-setup: mouse, plasma, po, 50 mg/kg, mice plasma; 50 mg/kg oral gavage in Labrasol; time 0.0833 hr; read-out: [Aza-Englerin] (ng/mL), single animal

# compound, concentration at 5 min / ng/mL
records = [
    ("CC1CCC2C1C(OC(=O)/C=C/c1ccccc1)C1(C(C)C)CC(NC(=O)CO)C2(C)O1 (stereo not shown) [Compound 9]", 6.87),
]

====

assay-comment: Plasma concentration in mice over time after oral gavage (LC-MS/MS)
Type: in vivo
measurement-setup: mouse, plasma, po, 50 mg/kg, mice plasma; 50 mg/kg oral gavage in Labrasol; time 0.2500 hr; mean of two mice; read-out: [Aza-Englerin] Mean
result-type: concentration at 0.25 h (ng/mL)

# compound, result-type, value
data = [
    ("CC1CCC2C1C(OC(=O)/C=C/c1ccccc1)C1(C(C)C)CC(NC(=O)CO)C2(C)O1 (stereo not shown)", "concentration at 0.25 h", 40.7),
]

====

assay-comment: Plasma concentration in mice over time after oral gavage (LC-MS/MS)
Format: in vivo
measurement-setup: mouse, plasma, po, 50 mg/kg, mice plasma; 50 mg/kg oral gavage in Labrasol; time 8.0000 hr; read-out: [Aza-Englerin] (ng/mL), single animal

# molecule, concentration at 8 h, ng/mL
data = [
    ("CC1CCC2C1C(OC(=O)/C=C/c1ccccc1)C1(C(C)C)CC(NC(=O)CO)C2(C)O1 (stereo not shown) [Compound 9]", 87.3),
]

Ref: patent US9676788B2
